This section presents compounds with their documented viability at 28.5 h, 10 µM values.
# ASSAY PROTOCOL: in vitro
# PARTICULARS: human, hela cells, % viability
MEASUREMENT TYPE: viability at 28.5 h, 10 µM (%)

                                    compound  result
 0  O=C(C1CC1)N1CCC(C(=O)N(Cc2ccco2)c2ccccc2)CC1    85.8
 1  Cc1ccccc1C1(O)CCN(CC(O)c2ccc3c(c2)CCC3)CC1 (stereo not drawn)      88
 2  Clc1ccc(CN2CCN(c3nccnc3OCc3cccnc3)CC2)cc1Cl [CBK083128T]     105
 3  Cc1cc(S(=O)(=O)N2CCCC2)ccc1OCC(=O)NCc1ccccn1      96
 4  O=C(Nc1ccc(F)cc1)c1ccsc1NS(=O)(=O)Cc1ccccc1[N+](=O)[O-]    91.7
 5    COc1ccc(CCNC(=O)N2CCN(c3ccccc3)CC2)cc1    96.8
 6  Cc1cc(C)n(CC(C)CNC(=O)CCCN(C)C)n1 (stereo not drawn)      93
 7  CC(Nc1cc(Cl)c(C(F)(F)F)cc1[N+](=O)[O-])c1ccc2[nH]c(=O)[nH]c2c1 (stereo not drawn)    86.7
 8  COc1ccccc1-c1ccc(NC(=O)CCc2ccc3c(c2)n(C)c(=O)n3C)cc1    93.1
 9  Cn1nccc1CCNC(=O)c1cccc(S(=O)(=O)N2CCCCC2)c1      97
10              COCCn1c(S)nc(=O)c2cc(C)cnc21      88
11  O=S(=O)(Nc1ccc(Cl)c(Cl)c1)c1ccc(Cl)c(Cl)c1    86.8
12     CCN(CC)CCOC(=O)NS(=O)(=O)c1ccc(Cl)cc1    97.6
13  Cc1ncc(C(=O)NC2(c3cccc(F)c3)CCCC2)c(C)n1    89.4
14  Cc1nn(CC(=O)N(C)C(C)c2ccncn2)c(=O)c2ccccc12 (stereo not drawn)      89
15  O=C(Nc1ccc(OC(F)(F)F)cc1)c1cnc(-c2ccc(Cl)cc2)c(-c2ccc(O)cc2)c1     109
16  Cc1ccc(-c2nnc(COc3ccc(-c4cnc5ccccc5n4)cc3)o2)cc1    90.9
17  OC(CN1CCN(c2cccc(Cl)c2)CC1)Cn1c2ccccc2c2ccccc21 (stereo not drawn)    98.2
18  Cc1cnn(CCC(=O)N2CCOC(c3nc(C(C)(C)C)n[nH]3)C2)c1 (stereo not drawn)     110
19    CCc1n[nH]c(C(=O)N2CCc3ncc(Cl)cc3C2)c1C    92.8
20      C[C@H]1CNCCN1c1nccnc1Cl [CBK047524F]      88
21  O=C(CN1CCN(c2ccc(C(F)(F)F)cn2)CC1)Nc1ccc2c(c1)OCO2     102
22  COc1ccc(N(CC(=O)Nc2c(F)cccc2F)S(=O)(=O)c2ccccc2)cc1    95.2
23  CC(O)CN(CC(C)O)CC1CC2C=CC1C2 (stereo not drawn)    90.4
24  CCOC(=O)c1[nH]c(C)c(C(=O)N/N=C/c2ccc(-c3ccc(Cl)cc3)o2)c1C      95
25  CC(NS(=O)(=O)c1ccc([N+](=O)[O-])cc1)C(=O)O (stereo not drawn)    90.5
26                   O=C(O)CCCC(=O)OCc1ccco1    98.1
27  CC(C(=O)N1CCC(O)(c2ccccn2)CC1)c1ccccc1 (stereo not drawn)     102
28  COCCNC(=O)C1(O)c2ccccc2NC(=O)N1c1cccc(OC)c1 (stereo not drawn)     110
29  Cc1ccc(C(=O)C2=C(O)C(=O)N(CCCn3ccnc3)C2c2ccncc2)cc1 (stereo not drawn)     106
30  Cc1c(S(=O)(=O)Nc2ccc(C(=O)c3ccccc3)cc2)cnn1-c1ccccc1    96.5
31  COC(C(=O)NCc1sc(-c2ccccc2)nc1C)c1ccccc1 (stereo not drawn)    93.1
32  Cc1nc(C)c(C(=O)NCCN2CCCCC2C)s1 (stereo not drawn)     106
33      CCOc1cc(C)ccc1S(=O)(=O)n1nnc2ccccc21    97.3
34                O=C(Oc1ccccc1)c1ccnc(Cl)c1    87.2
35             Cc1c(C(=O)O)[nH]c2c1C(=O)CCC2    97.5
36        COc1cccc(COc2cncc(N3CCNCC3)n2)c1OC    98.6
37  N#CCCn1cc(C(=O)N2CCOCC2)c(-c2cc3ccccc3o2)n1     104
38  O=C1CCC(C(=O)O)(c2ccccc2)N1c1ccccc1 (stereo not drawn)    94.8

This collection of values is drawn from paper PMC12040169.
